Data provenance is patent US20250136607A1.

This section presents compounds with their documented IC50 values.
- Tested on: Citrullinated Histone H3 in dHL-60 cells (differentiated HL-60)
- procedure_text: dHL-60 Cit-H3 ELISA assay
- Format: cell-based, human
- run_conditions: Homo sapiens, HL-60, stimulation with 25 μM A23187 for 3 h, read-out: Average IC50 Abs

[Q] IC50 for CCn1cc(Cn2c(-c3cc4cccc5c4n3CCN5CCCO)nc3cc(C(=O)N4C[C@H](N)C[C@@H](F)C4)cc(OC)c32)cn1 [Example 34] ?
[A] 500 to 5000 nM

[Q] IC50 for COc1cc(C(=O)N2CCC[C@@H](N)C2)cc2nc(-c3cc4cccc5c4n3CCN5CCO)n(C)c12 [Example 10] ?
[A] 500 to 5000 nM

[Q] IC50 for CCC1CN(CCCO)c2cccc3cc(-c4nc5cc(C(=O)N6C[C@H]7CC[C@@H]6[C@@H]7N)cc(F)c5n4CC)n1c23 (stereo partly shown) [Example 96] ?
[A] ≤ 100 nM

[Q] IC50 for CC(C)C1CN(CCCO)c2cccc3cc(-c4nc5cc(C(=O)N6C[C@H]7CC[C@@H]6[C@@H]7N)cc(F)c5n4C)n1c23 (stereo partly shown) [Example 103] ?
[A] ≤ 100 nM

====

This section presents compounds with their documented IC50 values.
- target_system: Protein arginine deiminase 4 (PAD4) (Homo sapiens)
- procedure_text: PAD4 ammonia release assay
- Format: biochemical
- run_conditions: PAD4 ammonia release assay, BAEE substrate, 60 min at RT; read-out: Average IC50 Abs

Here are 5 compounds together with their reported answers.
compound	IC50
CCN1CCc2c(ccc3cc(-c4nc5cc(C(=O)N6C[C@H]7CC[C@@H]6[C@@H]7N)cc(F)c5n4C)n(CC4CC4)c23)C1 [Example 153]	0.1 to 0.5 µM
CCC1CNc2nccc3cc(-c4nc5cc(C(=O)N6C[C@H]7CC[C@@H]6[C@@H]7N)cc(F)c5n4C)n1c23 (some centres unmarked) [Example 135]	> 5 µM
COc1cc(C(=O)N2CCC[C@@H](N)C2)cc2nc(-c3cc4cccc5c4n3CCN5CCCNC(C)=O)n(C)c12 [Example 3]	0.5 to 5 µM
COc1cc(C(=O)N2CC[C@@H](F)[C@@H](N)C2)cc2nc(-c3cc4cccc5c4n3CCN5CCCO)n(C)c12 [Example 20]	0.5 to 5 µM
CCC1C(=O)Nc2c(Cl)ccc3cc(-c4nc5cc(C(=O)N6C[C@H]7CC[C@@H]6[C@@H]7N)cc(F)c5n4C)n1c23 (some centres unmarked) [Example 124]	0.5 to 5 µM

[Q] Under Protein arginine deiminase 4 (PAD4) (Homo sapiens): IC50 value of COc1cc(C(=O)N2CC3CNC3C2)cc2nc(-c3cc4cccc5c4n3CCN5CCCO)n(CC3CC3)c12 (centres unmarked) [Example 53] ?
[A] > 5 µM

[Q] Under Protein arginine deiminase 4 (PAD4) (Homo sapiens): IC50 value of COc1cc(C(=O)N2CCC3CC3(N)C2)cc2nc(-c3cc4cccc5c4n3CCN5CCCO)n(CC3CC3)c12 (centres unmarked) [Example 55] ?
[A] 0.5 to 5 µM

[Q] Under Protein arginine deiminase 4 (PAD4) (Homo sapiens): IC50 value of CCn1c(-c2cc3cccc4c3n2C(C)CN4CCCO)nc2cc(C(=O)N3C[C@H](N)C[C@@H](F)C3)cc(OC)c21 (some centres unmarked) [Example 66] ?
[A] 0.5 to 5 µM

[Q] Under Protein arginine deiminase 4 (PAD4) (Homo sapiens): IC50 value of COc1cc(C(=O)N2CCC3(CC2)CC3N)cc2nc(-c3cc4cccc5c4n3CCN5CCCO)n(CC3CC3)c12 (centres unmarked) [Example 56] ?
[A] > 5 µM

[Q] Under Protein arginine deiminase 4 (PAD4) (Homo sapiens): IC50 value of CC[C@H]1CN(CCCO)c2cccc3cc(-c4nc5cc(C(=O)N6C[C@H]7CC[C@@H]6[C@@H]7N)cc(F)c5n4CC)n1c23 [Example 98] ?
[A] ≤ 0.1 µM

[Q] Under Protein arginine deiminase 4 (PAD4) (Homo sapiens): IC50 value of CCn1cc(Cn2c(-c3cc4cccc5c4n3CCN5CCCO)nc3cc(C(=O)N4C[C@H](N)C[C@@H](F)C4)cc(F)c32)cn1 [Example 38] ?
[A] ≤ 0.1 µM

[Q] Under Protein arginine deiminase 4 (PAD4) (Homo sapiens): IC50 value of COc1cc(C(=O)N2CCC[C@@H](N)C2)cc2nc(-c3cc4cccc5c4n3CCN5CCCNC(=O)NC3CC3)n(C)c12 [Example 5] ?
[A] 0.5 to 5 µM

====

- target_system: Protein arginine deiminase 4 (PAD4) (Homo sapiens)
- procedure_text: PAD4 ammonia release assay
- Format: biochemical
- run_conditions: PAD4 ammonia release assay, BAEE substrate, 60 min at RT; read-out: Average IC50 Abs
pIC50: −log10 of the molar value.
reported_metric: pIC50

Here are 5 molecules together with their reported answers.
molecule	measured
CCC1CN(CCCO)c2cccc3cc(-c4nc5cc(C(=O)N6C[C@H]7CC[C@@H]6[C@@H]7N)cc(F)c5n4Cc4ccco4)n1c23 (stereo partly shown)	6.30 to 7.00
CC(=O)N1CCc2c(ccc3cc(-c4nc5cc(C(=O)N6C[C@H]7CC[C@@H]6[C@@H]7N)cc(F)c5n4C)n(CC4CC4)c23)C1	≥ 7.00
COc1cc(C(=O)N2C[C@@H](N)C3(CC3)C2)cc2nc(-c3cc4cccc5c4n3CCN5CCCO)n(CC3CC3)c12	< 5.30
Cn1c(-c2cc3ccc(C#N)c4c3n2[C@@H](C2CC2)CN4)nc2cc(C(=O)N3C[C@H]4CC[C@@H]3[C@@H]4N)cc(F)c21 (single isomer, unassigned)	≥ 7.00
CC[C@H]1CNc2cccc3cc(-c4nc5cc(C(=O)N6C[C@H]7CC[C@@H]6[C@@H]7N)cc(F)c5n4C)n1c23	≥ 7.00

[Q] Under Protein arginine deiminase 4 (PAD4) (Homo sapiens): pIC50 value of Cn1c(-c2cc3ccc4cc[nH]c4c3n2CC2CC2)nc2cc(C(=O)N3C[C@H]4CC[C@@H]3[C@@H]4N)cc(F)c21 ?
[A] ≥ 7.00

[Q] Under Protein arginine deiminase 4 (PAD4) (Homo sapiens): pIC50 value of CCC1CN(CCCO)c2cccc3cc(-c4nc5cc(C(=O)N6C[C@H]7CC[C@@H]6[C@@H]7N)cc(F)c5n4CC)n1c23 (stereo partly shown) ?
[A] 6.30 to 7.00

[Q] Under Protein arginine deiminase 4 (PAD4) (Homo sapiens): pIC50 value of Cn1c(-c2cc3ccc4c(c3n2CC2CC2)CCNC4)nc2cc(C(=O)N3C[C@H]4CC[C@@H]3[C@@H]4N)cc(F)c21 ?
[A] 5.30 to 6.30

[Q] Under Protein arginine deiminase 4 (PAD4) (Homo sapiens): pIC50 value of Cn1c(-c2cc3ccc(C(F)(F)F)c4c3n2C(C2CC2)CN4)nc2cc(C(=O)N3C[C@H]4CC[C@@H]3[C@@H]4N)cc(F)c21 (stereo partly shown) ?
[A] ≥ 7.00

[Q] Under Protein arginine deiminase 4 (PAD4) (Homo sapiens): pIC50 value of COc1cc(C(=O)N2CCC[C@@H](N)C2)cc2nc(-c3cc4cccc5c4n3CCN5CCCN)n(C)c12 ?
[A] 5.30 to 6.30

[Q] Under Protein arginine deiminase 4 (PAD4) (Homo sapiens): pIC50 value of CN1CCc2c(ccc3cc(-c4nc5cc(C(=O)N6C[C@H]7CC[C@@H]6[C@@H]7N)cc(F)c5n4C)n(CC4CC4)c23)C1 ?
[A] 6.30 to 7.00

[Q] Under Protein arginine deiminase 4 (PAD4) (Homo sapiens): pIC50 value of COc1cc(C(=O)N2C[C@H](N)C[C@@H](F)C2)cc2nc(-c3cc4cccc5c4n3CCN5Cc3cnn(C)c3)n(C)c12 ?
[A] 5.30 to 6.30

[Q] Under Protein arginine deiminase 4 (PAD4) (Homo sapiens): pIC50 value of Cn1cc(Cn2c(-c3cc4cccc5c4n3CCN5CCCO)nc3cc(C(=O)N4C[C@@H](N)C[C@H](F)C4)cc(F)c32)cn1 ?
[A] ≥ 7.00

====

This section presents compounds with their documented IC50 values.
- target_system: Protein arginine deiminase 4 (PAD4) (Homo sapiens, UniProt Q9UM07)
- Sequence (Q9UM07 whole entry): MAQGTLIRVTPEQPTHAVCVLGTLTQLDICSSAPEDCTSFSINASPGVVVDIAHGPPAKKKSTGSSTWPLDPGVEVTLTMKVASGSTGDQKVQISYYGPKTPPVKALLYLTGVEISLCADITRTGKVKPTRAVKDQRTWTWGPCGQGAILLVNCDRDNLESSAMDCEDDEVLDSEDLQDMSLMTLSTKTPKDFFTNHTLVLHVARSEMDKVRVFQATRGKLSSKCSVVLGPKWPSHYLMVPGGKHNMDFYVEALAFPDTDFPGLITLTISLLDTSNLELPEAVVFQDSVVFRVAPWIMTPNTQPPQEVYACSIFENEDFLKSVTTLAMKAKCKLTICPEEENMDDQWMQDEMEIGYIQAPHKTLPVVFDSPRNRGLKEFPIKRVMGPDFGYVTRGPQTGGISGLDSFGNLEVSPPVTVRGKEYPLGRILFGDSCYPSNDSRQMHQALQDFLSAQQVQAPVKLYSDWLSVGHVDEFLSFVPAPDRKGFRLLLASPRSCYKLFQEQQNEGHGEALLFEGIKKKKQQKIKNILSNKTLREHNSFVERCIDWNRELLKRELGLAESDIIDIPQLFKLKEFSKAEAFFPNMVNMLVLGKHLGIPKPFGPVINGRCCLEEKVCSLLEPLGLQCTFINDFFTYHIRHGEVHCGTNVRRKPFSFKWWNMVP
- procedure_text: PAD4 ammonia release assay
- Type: biochemical
- run_conditions: PAD4 ammonia release assay, BAEE substrate, 60 min at RT; read-out: Average IC50 Abs
- Description: 1) Compound preparation: The compounds were diluted to 80× final concentrations. 2) The compounds were transferred to a 384-well assay plate by Tecan. DMSO: 1.25%. […] The percent (%) inhibition at each concentration of compound was calculated based on and relative to the signal in the HPE (50 μM ref. compound) and ZPE (1.25% DMSO) wells included within each assay plate. […] The endpoint value (IC50) for the reference compound was evaluated in each experiment as a quality control measure. […]

Here are 4 compounds together with their reported answers.
compound	IC50
CC[C@H]1[C@H](C)Nc2cccc3cc(-c4nc5cc(C(=O)N6C[C@H]7CC[C@@H]6[C@@H]7N)cc(F)c5n4C)n1c23	> 5000 nM
CN1C(=O)Cc2c1ccc1cc(-c3nc4cc(C(=O)N5C[C@H]6CC[C@@H]5[C@@H]6N)cc(F)c4n3C)n(CC3CC3)c21	> 5000 nM
Cn1c(-c2cc3cc(F)cc4c3n2C(C2CC2)CN4)nc2cc(C(=O)N3C[C@H]4CC[C@@H]3[C@@H]4N)cc(F)c21 (some centres unmarked)	100 to 500 nM
COc1cc(C(=O)N2CCC[C@@H](N)C2)cc2nc(-c3cc4cccc5c4n3CCC(=O)N5)n(C)c12	> 5000 nM

[Q] IC50 for Cn1c(-c2cc3cccc4c3n2C(C2CCC2)CN4)nc2cc(C(=O)N3C[C@H]4CC[C@@H]3[C@@H]4N)cc(F)c21 (some centres unmarked) ?
[A] 100 to 500 nM

[Q] IC50 for CCC1CC(=O)c2cccc3cc(-c4nc5cc(C(=O)N6C[C@H]7CC[C@@H]6[C@@H]7N)cc(F)c5n4C)n1c23 (some centres unmarked) ?
[A] 500 to 5000 nM

[Q] IC50 for COc1cc(C(=O)N2CCC3(CC3N)C2)cc2nc(-c3cc4cccc5c4n3CCN5CCCO)n(CC3CC3)c12 (centres unmarked) ?
[A] > 5000 nM
